Each entry below lists one item and its recorded cell number change value.
assay_overview: qHTS Assay for Lipid Storage Modulators in Drosophila S3 Cells;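 further: cells counted by Cell Tracker Red CMTPX staining in the red channel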
particulars: BODIPY lipid droplet fluorescence, 18-24 h, cells fed with added oleic acid; measured here: cell count max response
The campaign covered roughly 320,000 compounds. About 2,100 (0.66%) were called active. Roughly 53% stayed inconclusive and do not appear here. Shown is part of a subset that was picked to be rich in actives.
Give the value, in units of %, as a plain number.

Completed entries (count: 4):
>  <compound>
Cc1c(C(=O)O)oc2ccc(S(=O)(=O)N3CC(C)CC(C)C3)cc12 (stereo not given)

>  <quantity_measured>
cell number change

>  <measured_value>
24.2

$$$$
>  <compound>
Cc1c(C(=O)NCC2CCCO2)oc2ccc(S(=O)(=O)N3CCCC3)cc12 (stereo not given)

>  <quantity_measured>
cell number change

>  <measured_value>
-3.78

$$$$
>  <compound>
Nn1c(SCC(=O)Nc2ccc3c(c2)OCO3)nnc1-c1cccc(Cl)c1

>  <quantity_measured>
cell number change

>  <measured_value>
0.909

$$$$
>  <compound>
Cc1c(C(=O)NCCN(C)C)oc2ccc(S(=O)(=O)N3CCCC3)cc12

>  <quantity_measured>
cell number change

>  <measured_value>
13.1

$$$$

Now let's try a different one.
[ask] Please report the measured cell number change for O=C(NCCO)c1cc2c([nH]c3ccccc32)c(-c2ccccc2)n1
[reply] -12.4
